# ASSAY SYSTEM: T1, Human CD137 ECD (human)
# T1 construct: also called 4-1BB
# T1 sequence (chain, as listed by the source limits assumed): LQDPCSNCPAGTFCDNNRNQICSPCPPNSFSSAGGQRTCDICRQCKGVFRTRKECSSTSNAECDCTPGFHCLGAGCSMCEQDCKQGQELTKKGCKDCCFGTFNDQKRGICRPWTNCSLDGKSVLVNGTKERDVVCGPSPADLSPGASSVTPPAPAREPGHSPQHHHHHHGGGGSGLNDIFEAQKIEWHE
# EXPERIMENT DESCRIPTION: SPR, vs parent H183/L072

BINDER	SCALE UNIT	fold change of affinity
dBBDu183H S62W / dBBDu072L (antibody, name in Kabat numbering, V domains shown, as m1, one VH change) VH: QVQLVESGGGLVQPGRSLRLSCAASGFTFSNAWMHWVRQAPGKGLEWVAQIKDKGNAYAAYYAPWVKGRFTISRDDSKNSIYLQMNSLKTEDTAVYYCHYVHYASASTVLPAFGVDAWGQGTTVTVSS VL: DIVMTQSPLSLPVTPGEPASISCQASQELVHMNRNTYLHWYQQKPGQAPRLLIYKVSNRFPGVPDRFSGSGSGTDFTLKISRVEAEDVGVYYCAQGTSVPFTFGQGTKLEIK	fold	0.8
dBBDu183H V63R / dBBDu072L (antibody, name in Kabat numbering, V domains shown, as m1, one VH change) VH: QVQLVESGGGLVQPGRSLRLSCAASGFTFSNAWMHWVRQAPGKGLEWVAQIKDKGNAYAAYYAPSRKGRFTISRDDSKNSIYLQMNSLKTEDTAVYYCHYVHYASASTVLPAFGVDAWGQGTTVTVSS VL: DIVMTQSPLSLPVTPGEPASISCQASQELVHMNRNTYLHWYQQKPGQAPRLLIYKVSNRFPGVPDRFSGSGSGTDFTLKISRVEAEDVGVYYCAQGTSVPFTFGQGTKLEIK	fold	1
dBBDu183H S99T / dBBDu072L (antibody, name in Kabat numbering, V domains shown, as m1, one VH change) VH: QVQLVESGGGLVQPGRSLRLSCAASGFTFSNAWMHWVRQAPGKGLEWVAQIKDKGNAYAAYYAPSVKGRFTISRDDSKNSIYLQMNSLKTEDTAVYYCHYVHYATASTVLPAFGVDAWGQGTTVTVSS VL: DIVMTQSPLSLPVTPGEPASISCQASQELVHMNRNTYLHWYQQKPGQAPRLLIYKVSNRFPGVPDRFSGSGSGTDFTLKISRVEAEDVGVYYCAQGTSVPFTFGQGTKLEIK	fold	0.6
dBBDu183H P100eK / dBBDu072L (antibody, name in Kabat numbering, V domains shown, as m1, one VH change) VH: QVQLVESGGGLVQPGRSLRLSCAASGFTFSNAWMHWVRQAPGKGLEWVAQIKDKGNAYAAYYAPSVKGRFTISRDDSKNSIYLQMNSLKTEDTAVYYCHYVHYASASTVLKAFGVDAWGQGTTVTVSS VL: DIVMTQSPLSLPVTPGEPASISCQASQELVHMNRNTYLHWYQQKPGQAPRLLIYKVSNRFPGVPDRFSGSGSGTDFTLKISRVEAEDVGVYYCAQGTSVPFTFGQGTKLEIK	fold	0.3
dBBDu183H P61K / dBBDu072L (antibody, name in Kabat numbering, V domains shown, as m1, one VH change) VH: QVQLVESGGGLVQPGRSLRLSCAASGFTFSNAWMHWVRQAPGKGLEWVAQIKDKGNAYAAYYAKSVKGRFTISRDDSKNSIYLQMNSLKTEDTAVYYCHYVHYASASTVLPAFGVDAWGQGTTVTVSS VL: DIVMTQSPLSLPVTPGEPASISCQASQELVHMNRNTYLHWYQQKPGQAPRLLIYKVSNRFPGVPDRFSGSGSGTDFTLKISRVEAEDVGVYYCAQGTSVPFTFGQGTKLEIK	fold	0.8
dBBDu183H K64Y / dBBDu072L (antibody, name in Kabat numbering, V domains shown, as m1, one VH change) VH: QVQLVESGGGLVQPGRSLRLSCAASGFTFSNAWMHWVRQAPGKGLEWVAQIKDKGNAYAAYYAPSVYGRFTISRDDSKNSIYLQMNSLKTEDTAVYYCHYVHYASASTVLPAFGVDAWGQGTTVTVSS VL: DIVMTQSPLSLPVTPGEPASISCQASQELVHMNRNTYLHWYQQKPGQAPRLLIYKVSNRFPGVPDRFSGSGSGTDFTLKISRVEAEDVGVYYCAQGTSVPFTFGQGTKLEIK	fold	1.1
dBBDu183H A100E / dBBDu072L (antibody, name in Kabat numbering, V domains shown, as m1, one VH change) VH: QVQLVESGGGLVQPGRSLRLSCAASGFTFSNAWMHWVRQAPGKGLEWVAQIKDKGNAYAAYYAPSVKGRFTISRDDSKNSIYLQMNSLKTEDTAVYYCHYVHYASESTVLPAFGVDAWGQGTTVTVSS VL: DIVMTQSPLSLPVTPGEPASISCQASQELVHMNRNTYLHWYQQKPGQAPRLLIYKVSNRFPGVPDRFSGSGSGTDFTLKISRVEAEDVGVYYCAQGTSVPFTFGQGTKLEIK	fold	0.5
dBBDu183H S62F / dBBDu072L (antibody, name in Kabat numbering, V domains shown, as m1, one VH change) VH: QVQLVESGGGLVQPGRSLRLSCAASGFTFSNAWMHWVRQAPGKGLEWVAQIKDKGNAYAAYYAPFVKGRFTISRDDSKNSIYLQMNSLKTEDTAVYYCHYVHYASASTVLPAFGVDAWGQGTTVTVSS VL: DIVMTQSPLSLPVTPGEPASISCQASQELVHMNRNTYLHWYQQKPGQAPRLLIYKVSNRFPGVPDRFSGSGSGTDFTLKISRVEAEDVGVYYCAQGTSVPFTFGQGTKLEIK	fold	0.5
dBBDu183H F100gV / dBBDu072L (antibody, name in Kabat numbering, V domains shown, as m1, one VH change) VH: QVQLVESGGGLVQPGRSLRLSCAASGFTFSNAWMHWVRQAPGKGLEWVAQIKDKGNAYAAYYAPSVKGRFTISRDDSKNSIYLQMNSLKTEDTAVYYCHYVHYASASTVLPAVGVDAWGQGTTVTVSS VL: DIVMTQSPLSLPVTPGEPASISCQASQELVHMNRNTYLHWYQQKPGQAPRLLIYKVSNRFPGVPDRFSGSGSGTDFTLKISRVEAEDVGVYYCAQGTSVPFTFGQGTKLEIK	fold	0.5
dBBDu183H S62Y / dBBDu072L (antibody, name in Kabat numbering, V domains shown, as m1, one VH change) VH: QVQLVESGGGLVQPGRSLRLSCAASGFTFSNAWMHWVRQAPGKGLEWVAQIKDKGNAYAAYYAPYVKGRFTISRDDSKNSIYLQMNSLKTEDTAVYYCHYVHYASASTVLPAFGVDAWGQGTTVTVSS VL: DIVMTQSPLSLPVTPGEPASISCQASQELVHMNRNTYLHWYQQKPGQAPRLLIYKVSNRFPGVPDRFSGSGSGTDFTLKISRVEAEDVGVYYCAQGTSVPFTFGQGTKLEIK	fold	0.7
